- target or test system: Metabotropic glutamate receptor 2 (Homo sapiens)
- protocol description: Binding potency against Metabotropic glutamate receptor 2 was determined by measuring the concentration required to activate 50% of [35S]GTP-gamma-S, in presence of 10 uM glutamate
- Type: functional
endpoint label: ED50 (nM)

FC(F)(F)c1ccccc1Cc1cccc(NCc2cnc3ccccc3c2)c1
1000

A: O=S(=O)(CC(F)(F)F)N(Cc1cncnc1)c1cccc(COc2ccccc2)c1
B: O=S(=O)(CC(F)(F)F)N(Cc1cncnc1)c1cccc(Oc2ccccc2)c1
C: FC(F)(F)Oc1cccc(NCc2cncnc2)c1
D: c1ccc(NCc2cncnc2)cc1
Order each entry by recorded ED50, climbing from the minimum. Ranked list of labels, please, in the requested order.
B, A, D, C

Data provenance is ChEMBL document CHEMBL1137892.
